- Measured Target: VEGFR2 (Homo sapiens, UniProt P35968)
- Sequence (P35968 20-1356, species assumed): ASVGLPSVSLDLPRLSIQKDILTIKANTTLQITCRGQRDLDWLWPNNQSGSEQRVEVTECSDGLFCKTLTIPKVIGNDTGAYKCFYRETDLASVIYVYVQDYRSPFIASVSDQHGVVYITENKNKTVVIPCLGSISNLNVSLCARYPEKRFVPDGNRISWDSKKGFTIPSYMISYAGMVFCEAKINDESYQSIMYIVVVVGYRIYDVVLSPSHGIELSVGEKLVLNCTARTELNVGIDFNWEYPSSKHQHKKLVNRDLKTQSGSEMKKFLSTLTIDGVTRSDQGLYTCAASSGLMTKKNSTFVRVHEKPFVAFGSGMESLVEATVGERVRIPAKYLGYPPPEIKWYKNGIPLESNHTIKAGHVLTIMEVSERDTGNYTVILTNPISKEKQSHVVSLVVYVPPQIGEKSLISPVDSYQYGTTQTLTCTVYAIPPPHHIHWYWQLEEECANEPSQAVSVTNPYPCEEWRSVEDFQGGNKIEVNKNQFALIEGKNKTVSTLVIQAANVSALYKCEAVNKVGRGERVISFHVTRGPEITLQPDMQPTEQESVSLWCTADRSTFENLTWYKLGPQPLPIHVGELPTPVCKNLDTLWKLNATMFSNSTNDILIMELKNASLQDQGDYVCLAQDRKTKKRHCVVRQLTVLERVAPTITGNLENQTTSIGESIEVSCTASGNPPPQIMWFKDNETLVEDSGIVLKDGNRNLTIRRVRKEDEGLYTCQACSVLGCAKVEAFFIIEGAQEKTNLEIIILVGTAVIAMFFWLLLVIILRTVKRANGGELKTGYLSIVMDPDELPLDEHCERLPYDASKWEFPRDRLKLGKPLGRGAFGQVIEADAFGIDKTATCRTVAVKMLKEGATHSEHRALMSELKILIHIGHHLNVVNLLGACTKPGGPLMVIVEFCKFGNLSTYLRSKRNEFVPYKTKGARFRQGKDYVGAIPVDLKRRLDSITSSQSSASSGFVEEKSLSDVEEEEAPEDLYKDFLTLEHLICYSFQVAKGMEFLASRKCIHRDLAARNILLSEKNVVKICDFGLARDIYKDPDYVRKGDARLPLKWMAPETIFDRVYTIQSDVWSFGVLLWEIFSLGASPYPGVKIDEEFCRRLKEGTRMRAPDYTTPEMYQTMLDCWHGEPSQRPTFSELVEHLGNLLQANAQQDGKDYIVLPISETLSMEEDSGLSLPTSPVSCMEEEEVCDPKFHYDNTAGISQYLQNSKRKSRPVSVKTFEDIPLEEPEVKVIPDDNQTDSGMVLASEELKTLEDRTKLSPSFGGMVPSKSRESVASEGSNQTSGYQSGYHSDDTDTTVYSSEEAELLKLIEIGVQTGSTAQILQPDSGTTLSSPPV
For each record, write down the corresponding IC50.
Give bare numbers, in nM.

Cc1cc(Nc2cc(C)[nH]n2)nc(-c2ccc(N3CC4CC(C3)N4Cc3ccc(-n4nc(C)cc4C)nc3)nc2)n1 ... 158

Here's the next entry for you.
Ask: Report IC50 for `Cc1cc(Nc2cc(C)[nH]n2)nc(-c2ccc(N3CC4CC(C3)N4Cc3ccc(-n4cc(F)cn4)nc3)nc2)n1` please.
Result: 63

###

For each record, write down the corresponding IC50.
- Measured Target: RET-V804L (Homo sapiens, UniProt P07949, V804L)
- Sequence (P07949 29-1114 V804L): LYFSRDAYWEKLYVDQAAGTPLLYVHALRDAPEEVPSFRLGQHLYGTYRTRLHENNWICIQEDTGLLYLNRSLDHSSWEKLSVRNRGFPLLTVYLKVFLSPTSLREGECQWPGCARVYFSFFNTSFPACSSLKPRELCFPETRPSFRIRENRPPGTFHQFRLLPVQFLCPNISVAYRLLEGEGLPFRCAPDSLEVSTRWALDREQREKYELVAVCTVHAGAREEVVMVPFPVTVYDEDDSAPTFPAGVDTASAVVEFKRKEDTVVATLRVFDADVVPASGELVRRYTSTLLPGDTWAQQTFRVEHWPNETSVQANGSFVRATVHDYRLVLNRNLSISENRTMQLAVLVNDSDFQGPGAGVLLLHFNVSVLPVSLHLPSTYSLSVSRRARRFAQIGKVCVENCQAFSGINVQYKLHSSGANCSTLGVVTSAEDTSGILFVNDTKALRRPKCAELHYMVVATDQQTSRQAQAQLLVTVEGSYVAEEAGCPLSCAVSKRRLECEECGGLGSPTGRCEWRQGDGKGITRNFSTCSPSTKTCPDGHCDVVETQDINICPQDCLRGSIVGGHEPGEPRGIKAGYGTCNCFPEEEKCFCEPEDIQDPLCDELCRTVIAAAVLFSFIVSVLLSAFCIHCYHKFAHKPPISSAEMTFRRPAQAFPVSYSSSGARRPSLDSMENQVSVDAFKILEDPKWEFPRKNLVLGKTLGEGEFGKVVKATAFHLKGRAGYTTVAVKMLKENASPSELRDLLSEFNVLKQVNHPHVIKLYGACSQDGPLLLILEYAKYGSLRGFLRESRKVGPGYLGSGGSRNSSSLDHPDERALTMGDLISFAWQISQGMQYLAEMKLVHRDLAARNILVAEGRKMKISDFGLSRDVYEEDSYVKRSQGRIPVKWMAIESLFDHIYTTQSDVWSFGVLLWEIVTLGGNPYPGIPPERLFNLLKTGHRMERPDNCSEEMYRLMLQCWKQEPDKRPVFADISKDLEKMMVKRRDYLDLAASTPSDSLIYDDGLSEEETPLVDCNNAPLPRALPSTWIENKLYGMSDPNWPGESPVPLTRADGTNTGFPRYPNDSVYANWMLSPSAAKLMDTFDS
- Test Name: RET inhibition experiment (HTRF KinEASE-TK kit), mutant RET-V804L
- Assay type: biochemical
- Test Context: read-out: The IC50 (nM) for inhibiting RET-V804L
Numbers only, in nM.

Cc1cc(Nc2cc(C)[nH]n2)nc(-c2ccc(N3CC4CC(C3)N4Cc3ccc(-n4cc(F)cn4)nc3)nc2)n1 ... 6.54
Cc1cc(Nc2cc(C)[nH]n2)nc(-c2ccc(N3CC4CC(C3)N4Cc3ccc(-n4ncc(F)c4C)nc3)nc2)n1 ... 4.79
Cc1cc(Nc2cc(C)[nH]n2)nc(-c2ccc(N3CC4CC(C3)N4Cc3ccc(-n4cccn4)nc3)nc2)n1 ... 5.07

Here's the next entry for you.
Ask: Report IC50 for `Cc1cc(Nc2cc(C)[nH]n2)nc(-c2ccc(N3CC4CC(C3)N4Cc3ccc(-n4ccc(C5CC5)n4)nc3)nc2)n1` please.
Result: 10.1
